# tested.on: T1, recombinant human IL-36R extracellular domain expressed with a C-terminal myc-myc-hexahistidine tag (human, UniProt Q9HB29 20-337)
# T1 construct: also called hIL-36R-MMH; hIL-36R.mmH
# assay.remarks: SPR (Biacore 4000), mAb captured on anti-human Fc, 25°C
quantity.name: pKd
On this scale, pKd is minus log10 of a concentration expressed in M (mol/L).

Some solved entries appear below for comparison.
{"binder": "H4H14757P (antibody, human IgG4 S228P, kappa, V domains shown) VH: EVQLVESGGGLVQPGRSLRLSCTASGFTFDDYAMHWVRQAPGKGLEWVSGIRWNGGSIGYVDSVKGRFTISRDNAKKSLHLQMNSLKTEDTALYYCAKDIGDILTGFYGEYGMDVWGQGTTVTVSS VL: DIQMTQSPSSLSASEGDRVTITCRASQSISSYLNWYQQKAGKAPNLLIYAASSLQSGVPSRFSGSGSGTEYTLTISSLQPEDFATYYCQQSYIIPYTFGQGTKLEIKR", "pKd": 8.66}
{"binder": "H4H14731P (antibody, human IgG4 S228P, kappa, V domains shown) VH: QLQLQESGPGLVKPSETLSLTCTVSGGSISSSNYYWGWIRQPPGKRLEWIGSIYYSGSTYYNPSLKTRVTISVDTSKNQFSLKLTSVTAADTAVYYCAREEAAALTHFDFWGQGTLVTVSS VL: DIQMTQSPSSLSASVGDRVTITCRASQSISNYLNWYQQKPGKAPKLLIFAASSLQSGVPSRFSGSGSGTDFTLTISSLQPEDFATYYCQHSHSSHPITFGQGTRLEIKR", "pKd": 8.43}

Here is the next item to consider.
[Q] In one line, give reported pKd of the entry H4H14758P (antibody, human IgG4 S228P, kappa, V domains shown) VH: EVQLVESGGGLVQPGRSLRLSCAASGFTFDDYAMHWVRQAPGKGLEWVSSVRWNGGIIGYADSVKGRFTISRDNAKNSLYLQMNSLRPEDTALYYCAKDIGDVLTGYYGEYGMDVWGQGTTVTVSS VL: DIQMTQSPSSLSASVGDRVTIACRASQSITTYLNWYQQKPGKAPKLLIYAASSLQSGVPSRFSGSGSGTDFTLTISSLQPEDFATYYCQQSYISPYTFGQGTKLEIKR .
[A] 8.12
